Target: human ether-à-go-go-related gene (hERG) potassium channel (human, UniProt Q12809);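 also: peak tail current of the secondary pulse compared with the same well before compound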
Sequence (Q12809 whole entry, looked up): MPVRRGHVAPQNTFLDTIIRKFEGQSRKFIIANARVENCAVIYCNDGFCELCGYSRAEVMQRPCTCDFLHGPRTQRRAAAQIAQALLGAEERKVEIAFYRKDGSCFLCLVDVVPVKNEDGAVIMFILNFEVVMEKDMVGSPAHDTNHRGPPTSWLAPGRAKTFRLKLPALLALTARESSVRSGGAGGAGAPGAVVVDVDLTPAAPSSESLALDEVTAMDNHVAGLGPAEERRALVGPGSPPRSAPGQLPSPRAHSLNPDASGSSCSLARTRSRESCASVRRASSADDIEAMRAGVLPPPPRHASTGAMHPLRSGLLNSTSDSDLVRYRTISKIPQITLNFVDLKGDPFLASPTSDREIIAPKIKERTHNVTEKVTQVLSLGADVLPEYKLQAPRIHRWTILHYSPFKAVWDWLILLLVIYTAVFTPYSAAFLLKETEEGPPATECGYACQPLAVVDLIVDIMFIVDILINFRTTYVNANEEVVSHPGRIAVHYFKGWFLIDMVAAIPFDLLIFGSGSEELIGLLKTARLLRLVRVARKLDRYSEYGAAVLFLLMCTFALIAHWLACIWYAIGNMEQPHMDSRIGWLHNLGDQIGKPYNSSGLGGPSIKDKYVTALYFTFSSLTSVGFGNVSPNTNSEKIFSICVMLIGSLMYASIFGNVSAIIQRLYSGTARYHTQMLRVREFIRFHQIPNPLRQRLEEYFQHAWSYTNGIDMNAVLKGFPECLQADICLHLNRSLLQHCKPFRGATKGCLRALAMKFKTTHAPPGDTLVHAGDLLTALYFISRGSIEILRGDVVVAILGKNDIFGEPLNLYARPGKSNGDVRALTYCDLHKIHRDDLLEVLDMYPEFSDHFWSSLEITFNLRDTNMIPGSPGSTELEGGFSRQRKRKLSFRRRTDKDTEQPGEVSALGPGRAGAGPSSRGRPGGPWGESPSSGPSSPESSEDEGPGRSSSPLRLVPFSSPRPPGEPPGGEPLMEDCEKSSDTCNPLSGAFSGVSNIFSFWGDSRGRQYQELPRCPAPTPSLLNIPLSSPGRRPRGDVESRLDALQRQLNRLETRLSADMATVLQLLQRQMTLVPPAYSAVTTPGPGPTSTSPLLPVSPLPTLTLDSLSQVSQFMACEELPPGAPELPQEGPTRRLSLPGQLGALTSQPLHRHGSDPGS
Assay: primary screen, population patch clamp on CHO cells stably expressing hERG; higher = less effect of the substance
Description: Briefly, Chinese hamster ovary (CHO) cells stably expressing the hERG channel were dislodged from tissue culture flasks and dispensed into PPC plates. […] During the recording, background leak currents were estimated by a 100 ms step to -80 mV from an initial holding potential of -70 mV and subtracted from the subsequent current measurement. The campaign was conducted in two phases using slight differences in recording protocol. […]
Hit rate of the full screen: of about 310,000 compounds, about 14,000 (4.5%) showed an effect of 50% or more. Effects have a minus sign here. The sample as a whole holds a higher share of strong results than the screen did.
RESULT_TYPE: hERG current change (%, negative = inhibition) at 10uM (%)

>>> reported("CCc1ccc(N2CC(C(=O)OCC(=O)Nc3ccc(C#N)cc3)CC2=O)cc1 (centres unmarked)")
-57.9
>>> reported("Cc1c(Cl)cccc1NC(=O)c1cc(-c2ccco2)on1")
-0.802
>>> reported("O=C1CC(N2CCN(c3ccc(F)cc3)CC2)C(=O)N1Cc1ccccc1 (centres unmarked)")
-17.6
>>> reported("NC(=O)C1(N2CCCCC2)CCN(C2CC(=O)N(Cc3cccs3)C2=O)CC1 (centres unmarked)")
6.12
>>> reported("CCC(Sc1ccc2nnc(CCNS(=O)(=O)c3ccc(OC)cc3)n2n1)C(=O)OC (centres unmarked)")
-10.7
>>> reported("O=C(Nc1cccc([N+](=O)[O-])c1)C1CCN(C(=O)Cc2ccccc2)CC1")
-43.3
>>> reported("O=C(c1ccc(N2CCN(C3CC(=O)N(Cc4cccs4)C3=O)CC2)cc1)c1cccnc1 (centres unmarked)")
-73.5
>>> reported("O=P(O)(CCc1ccccc1)CN1CCCCC1")
10.9
>>> reported("O=C(Nc1ccc(F)cc1)C1CCN(C(=O)c2ccc([N+](=O)[O-])cc2)CC1")
-4.16
>>> reported("CCc1cccc(C)c1NC(=O)C1CCN(C(=O)c2ccc([N+](=O)[O-])cc2)CC1")
-48.2
>>> reported("CC(=O)Nc1ccc(NC(=O)C2CCN(C(=O)c3ccc([N+](=O)[O-])cc3)CC2)cc1")
-0.926
>>> reported("Cc1ccc(C(=O)N2CCC(C(=O)Nc3cccc([N+](=O)[O-])c3)CC2)cc1")
-80.1
>>> reported("Cc1ccc(N2CCN(C(=O)Nc3cccc([N+](=O)[O-])c3)CC2C)cc1 (centres unmarked)")
-78.3
>>> reported("COc1cc(C(=O)N2CCC(C(=O)Nc3cccc(C(C)=O)c3)CC2)cc(OC)c1OC")
-2.12

---

Target: human ether-à-go-go-related gene (hERG) potassium channel (human);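 also: peak tail current of the secondary pulse compared with the same well before compound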
Assay: primary screen, population patch clamp on CHO cells stably expressing hERG; higher = less effect of the substance
In all, about 310,000 compounds went through this assay and about 14,000 (4.5%) showed an effect of 50% or more. Effects have a minus sign here. The entries come from a sample that favours strong results as a whole.
# hERG current change (%, negative = inhibition) at 10uM per entry
RESULT_TYPE: hERG current change (%, negative = inhibition) at 10uM (%)

>>> reported("CSc1ccc(NC(=O)NCCCN2CCN(c3ccccc3F)CC2)cc1")
-55.1
>>> reported("Cc1ccc(NC(=O)NCCN2CCN(C(=O)Nc3ccc(C)cc3)CC2)cc1")
-36.4
>>> reported("O=C(CSc1nnc(CNC(=O)c2ccco2)o1)c1ccccc1")
4.14
>>> reported("O=C(NCCCN1CCOCC1)NC12CC3CC(CC(C3)C1)C2")
1.72
>>> reported("Cc1[nH]n(-c2ccccc2)c(=O)c1N=Nc1cccc(C(=O)O)c1")
23.1
>>> reported("Cc1cccc(N(CC(=O)N/N=C/c2ccc(OCC(=O)NCc3ccco3)cc2)S(C)(=O)=O)c1C")
4.14
